molecular target: human mesothelin (MSLN) (human) (UniProt Q13421); assay: BLI (Octet), multiple concentrations, bsAb in 1+1 Fab-scFv-Fc format
Outcome measure: Response

Ask: Quick one: give measured Response for XENP32938 (bispecific antibody, part only; not given: anti-CD3 scFv-Fc arm, constant regions, V domains shown, not shown: another chain or arm of the molecule; a dimerising Fc or GST; small tags and cut ends) VH: QVQLVQSGAEVKKPGASVKVSCKASGYTFTSYWMHWVRQAPGQGLEWMGMIHPNSDNTIYYYKFQGRVTMTVDKSISTAYMELSRLRSDDTAVYYCAIIITPVVPKFDYWGQGTLVTVSS VL: DIVMTQSPDSLAVSLGERATINCKASHDVGTSVAWYQQKPGQSPKLLIYWASTRHTGVPDRFTGSGSGTDFTLTISSLQAEDVAVYFCQQYYSYPLTFGAGTKLEIK
Result: 0.169
